Catalogue of composite z-score readings, one per entry.
- ASSAY_TARGET: Dihydroorotate dehydrogenase (quinone), mitochondrial (Plasmodium falciparum (isolate 3D7)) (UniProt Q08210)
- Sequence (Q08210 whole entry, looked up): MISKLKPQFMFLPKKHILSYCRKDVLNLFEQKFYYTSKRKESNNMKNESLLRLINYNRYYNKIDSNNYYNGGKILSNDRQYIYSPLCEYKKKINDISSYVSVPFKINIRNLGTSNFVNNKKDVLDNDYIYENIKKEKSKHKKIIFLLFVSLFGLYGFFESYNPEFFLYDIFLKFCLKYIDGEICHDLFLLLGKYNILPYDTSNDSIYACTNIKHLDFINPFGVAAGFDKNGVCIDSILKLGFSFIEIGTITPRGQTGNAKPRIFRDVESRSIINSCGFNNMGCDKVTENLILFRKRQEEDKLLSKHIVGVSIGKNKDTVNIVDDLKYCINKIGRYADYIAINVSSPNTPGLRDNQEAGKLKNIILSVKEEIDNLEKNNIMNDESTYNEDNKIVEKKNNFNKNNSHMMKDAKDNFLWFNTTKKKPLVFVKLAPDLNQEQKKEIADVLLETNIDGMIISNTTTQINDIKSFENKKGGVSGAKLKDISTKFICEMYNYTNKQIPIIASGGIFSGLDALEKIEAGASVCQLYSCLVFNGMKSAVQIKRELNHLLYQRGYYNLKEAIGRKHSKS
- ASSAY_REMARKS: PfDHODH enzyme inhibitors, primary screen, biochemical, C-terminal His tag, absorbance 600 nm (AID 1175);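 further: recombinant parasite enzyme with a five histidine tag at its C terminus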
- RUN_CONDITIONS: DCIP absorbance 600 nm, higher = more signal, called active from +8 up or from −8 down
The answer should be a number; do not append a unit.

[N-]=[N+]=NCc1ccccc1C[C@@]1(C(=O)O)N=C(c2ccc(OCCCO)cc2)O[C@@H]1c1ccccc1CN=[N+]=[N-] has a reported composite z-score of -1.62

Input C=C(CC1([C@@H](NP(=O)(c2ccccc2)c2ccccc2)[C@H]2C[C@@H]2CCN(C(=O)OCC)S(=O)(=O)c2ccc(C)cc2)CC1)c1ccccc1 . Output composite z-score: 0.0407

More entries:
The reported value for COC(=O)C1=CC(CCCO)=CC(c2ccc(CN3CCCC3)cc2)N(Cc2sc3ccccc3c2Cl)C=C1C(=O)OC (centres undefined) in terms of composite z-score is -1.63

For reference, reported composite z-score for COc1cc2c(cc1O)C(c1ccc(CN3CCCC3)cc1)N(Cc1cccc(OC(F)(F)F)c1)CC2 (centres undefined) stands at 0.364

Entry CC(C)C[C@@H]1NC(=O)[C@H]2C[C@@H](C(=O)NCCCCCNC(=O)CS)[C@@H](c3ccc(O)cc3)N2C1=O — recorded composite z-score = 0.204

For reference, reported composite z-score for COCCOC(=O)N1C(=O)[C@@]2(c3cc(C#Cc4ccc(OC)cc4)ccc31)[C@H](C(=O)Nc1nc3ccccc3s1)[C@H]1C(=O)O[C@H](c3ccccc3)[C@H](c3ccccc3)N1[C@@H]2c1ccccc1OCCO stands at -0.882

The molecule identified as CCC(CC)C(O)C1C=CC2C(=O)N(C)C(=O)C2N1N1CCCCC1 (centres undefined) registered its composite z-score at -1.17

Measured composite z-score, COCCOC(=O)N1C(=O)[C@@]2(c3cc(C#CCCO)ccc31)[C@H](c1ccccc1OCCO)N1[C@H](c3ccccc3)[C@H](c3ccccc3)OC(=O)[C@H]1[C@@H]2C(=O)N1CCc2cc(OC)c(OC)cc2C1 : 0.725

Lookup result for C=CCC(OC(C)=O)[C@@H]1[C@@H](N(Cc2ccc(-c3cccc(C(F)(F)F)c3)o2)C(=O)Cc2ccc(OC)cc2)c2cc(OCCCO)ccc2N1C(=O)c1ccc2ccccc2n1 (some centres undefined) ; measured composite z-score: -0.0941

Sample COCCOC(=O)N1C(=O)[C@@]2(c3cc(C#CCC(C(=O)OC)C(=O)OC)ccc31)[C@H](c1ccc(OCCO)cc1)N1[C@H](c3ccccc3)[C@H](c3ccccc3)OC(=O)[C@H]1[C@@H]2C(=O)N1CCCCCCC1 ; composite z-score observed: 0.551

Lookup result for C[C@]1(C(=O)NCC(F)(F)F)c2ccccc2C(=O)N(Cc2ccc(OC(F)(F)F)cc2)[C@H]1c1ccc(CO)cc1 ; measured composite z-score: 0.182

Short answer for O=C1O[C@H](c2ccccc2)[C@H](c2ccccc2)N2[C@H]1[C@@H](C(=O)NC[C@H](O)c1ccccc1)[C@]1(C(=O)Nc3ccc(C#CCCO)cc31)[C@H]2c1ccccc1OCCO : composite z-score was -0.532

Summary for this molecule, C=C(COC)/C(=C/C[C@H](OC(=O)c1ccncc1)c1cccc(OCCO)c1)c1cnc2ccccc2c1 : composite z-score is -5.24

The recorded composite z-score for COC(=O)[C@@H]1N=C(c2ccc(OCCCO)cc2)O[C@@H]1c1ccccc1CN=[N+]=[N-] is -0.487

* * *

- ASSAY_REMARKS: basal HepG2 mitochondrial membrane potential changes, profiling panel, cell-based, JC-1 fluorescence, 24 h, 100 nL compound (AID 1167)
- RUN_CONDITIONS: higher = more signal
MEASURED_ATTRIBUTE: z-score
Answer with the value's number alone.

z-score reported for this molecule C=CC[C@]1(C(=O)N(C)C)COC(c2ccc(OCCCO)cc2)=N1 : -1.26

Value of measured z-score for the entry COc1ccc([Si](C)(C)[C@H]2[C@H](CC(=O)N3Cc4ccccc4C[C@H]3CO)O[C@@]3(C(=O)N(Cc4cccc(N5C(=O)c6cccc7cccc5c67)c4)c4ccccc43)[C@@H]2C)cc1 : 0.813

Just so you know, measured z-score for COCCOC(=O)N1C(=O)[C@@]2(c3cc(C#Cc4ccc(OC)cc4)ccc31)[C@H](c1ccc(OCCO)cc1)N1[C@H](c3ccccc3)[C@H](c3ccccc3)OC(=O)[C@H]1[C@@H]2C(=O)N1CCCCCCC1 came out at -0.16

Others:
Briefly, z-score measured for C#CCN(C/C=C/c1ccccc1)[C@H](CO[Si](C)(C)C(C)(C)C)c1ccccc1 : -2.55

get_value(item= C=CCC(OC(C)=O)[C@@H]1[C@@H](N(Cc2ccc(-c3cccc(C(F)(F)F)c3)o2)C(=O)Cc2ccc(OC)cc2)c2cc(OCCCO)ccc2N1C(=O)c1ccc2ccccc2n1 (stereo partly drawn) , readout=z-score) returns 2.12

Recorded result, CC(C)C(=C=CC[C@@H](O)c1ccc(OCCO)cc1)CCO , z-score: 0.871

# z-score of C=C(CCCC)C(=O)CC[C@H](OC(=O)c1cccnc1)c1ccc(CO)o1 = -1.48

# z-score (molecule: CC(C)=CCN(C(=O)C#Cc1ccccc1)[C@H](CO)c1ccccc1 ) is -3.07

* * *

- ASSAY_REMARKS: basal MM1S mitochondrial membrane potential changes, profiling panel, cell-based, JC-1 fluorescence, 24 h, 100 nL compound (AID 1170)
- RUN_CONDITIONS: higher = more signal
MEASURED_ATTRIBUTE: z-score
Quick one: just the number, no unit, thanks!

Known results for compounds:
The recorded z-score for entry COc1ccc([Si](C)(C)[C@@H]2[C@@H](CCO)O[C@]3(C(=O)N(Cc4ccccc4)c4ccc(N5C(=O)c6ccccc6Oc6ccccc65)cc43)[C@H]2C)cc1 equals -1.36

Reported z-score for CN1C(=O)C2C=CC(C(O)c3ccc(-c4ccccc4)s3)N(Nc3ccccc3)C2C1=O (centres undefined) was -0.138

Please fill in: z-score reported for O=C1NC(=O)C2C1C=CC(C(O)c1cccc(O)c1)N2Nc1ccc(Cl)cc1Cl (centres undefined) = 0.0224

Now consider the entry below.
Please fill in: z-score reported for NC(=O)[C@@]1(CCS(=O)(=O)c2ccccc2)COC(c2ccc(OCCCO)cc2)=N1 = -0.942

* * *

- System: XIP peptide (Xip251-270)
- ASSAY_REMARKS: small-molecule binders of XIP peptide, primary screen, biochemical, small-molecule microarray, fluorescence 635/667 nm, 0.5 µg/mL protein (AID 1183)
- RUN_CONDITIONS: small-molecule microarray binding, fluorescence 635 nm; higher = more signal
MEASURED_ATTRIBUTE: composite z-score

See these solved cases before continuing.
Per the records, this compound ( [N-]=[N+]=NCc1ccccc1C[C@@]1(C(=O)O)N=C(c2ccc(OCCCO)cc2)O[C@@H]1c1ccccc1CN=[N+]=[N-] ) has composite z-score equal to 0.512

composite z-score in this record for NCCCC[C@@H]1NC(=O)[C@H]2C[C@@H](C(=O)O)[C@@H](c3cccc(OCCO)c3)N2C1=O : 0.86

The value of composite z-score measured for the compound O=C1OCCC/C=C\[C@H]2OC34C=CCN(Cc5ccccc5)C(=O)[C@H]3N(CCCCCO)C(=O)[C@@H]4C12 (some centres not stated) turned out to be -0.6

According to the records, this compound CCOC(=O)C[C@H]1[C@H](OC(=O)c2cc3ccccc3oc2=O)[C@@H](NC(=O)C2CCCCC2)c2cc(OCCCO)ccc2N1C(=O)Cc1ccc(OC)cc1 displays composite z-score of 0.0439

Entry N#Cc1ccc(C(O)C2C=CC3C(=O)NC(=O)C3N2Nc2ccccn2)cc1 (configuration not stated) ; composite z-score = 0.669

Next:
COCCOC(=O)N1C(=O)[C@@]2(c3cc(C#CCCO)ccc31)[C@H](C(=O)N1CCN(c3ncccn3)CC1)[C@H]1C(=O)O[C@H](c3ccccc3)[C@H](c3ccccc3)N1[C@@H]2c1ccc(O)cc1 yielded composite z-score of 0.802

Form field composite z-score, entry CN1C(=O)[C@]2(CCS(=O)(=O)c3ccccc3)N=C(c3ccc(OCCCO)cc3)O[C@@H]2c2ccccc21 : 0.897

* * *

Recorded composite z-score values for a group of molecules are listed next.
- ASSAY_REMARKS: small-molecule binders of probe aNOTCH2, primary screen, biochemical, small-molecule microarray, 635/667 nm fluorescence (AID 1121);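 further: score merges feature fluorescence read at 667 nm with its signal to noise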
- RUN_CONDITIONS: higher = more signal
Respond numerically, and do not add a unit to the figure.

Just so you know, measured composite z-score for CN(C)CCCNC(=O)[C@@]1(Cc2ccccc2I)c2ccccc2C(=O)N(Cc2ccccc2)[C@H]1c1ccc(CO)cc1 came out at -0.247

Looking up COCCOC(=O)N1C(=O)[C@@]2(c3cc(C#CC4=CCCCC4)ccc31)[C@H](C(=O)N1CCc3cc(OC)c(OC)cc3C1)[C@H]1C(=O)O[C@H](c3ccccc3)[C@H](c3ccccc3)N1[C@@H]2c1ccc(O)cc1 , I see its composite z-score listed as 0.307

Recorded composite z-score (molecule Cc1ccc(S[C@]2(C(=O)NCCCN(C)C)CC(=O)N(Cc3ccccc3Cl)[C@@H]2c2ccc(CO)cc2I)cc1 ): -0.142

// field: composite z-score; key: CC(=O)c1ccc(C(O)C2C=CC3C(=O)NC(=O)C3N2Nc2ccc(Cl)cc2Cl)cc1 (configuration not stated) ; value = -0.0097

The molecule listed as [N-]=[N+]=NCc1ccccc1C[C@]1(C(=O)NCc2ccccc2)N=C(c2ccc(OCCCO)cc2)O[C@H]1c1ccccc1CN=[N+]=[N-] shows composite z-score equal to 0.0522

Consider Cc1ccc(S[C@]2(C(=O)NC3CC3)CC(=O)N(Cc3cc(C(F)(F)F)cc(C(F)(F)F)c3)[C@@H]2c2ccc(CO)cc2I)cc1 . Its measured composite z-score is 0.381

Next:
# molecule CCCC[C@@H]1C[C@H]1[C@@H](NC(=O)c1ccc(C(F)(F)F)cc1)c1ccc(C(=O)OC)cc1 ; its composite z-score = -0.0347
